- Tested on: LU-99A;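 further: growth inhibition of LU-99A cells, read out with a cell viability assay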
- test method notes: cells
- Format: functional, cell-based
- condition info: Homo sapiens
- Description: SANGER: Inhibition of human LU-99A cell growth in a cell viability assay.
experimental endpoint: IC50

Incoming: For O=C(NCCCNc1nc(Nc2cccc(NC(=O)N3CCCC3)c2)ncc1I)c1cccs1 , what is its reported IC50?
Outgoing: > 5 µM

Incoming: // query: CN(C)CCOc1ccc(-c2nc(-c3ccncc3)c(-c3ccc4c(c3)CC/C4=N\O)[nH]2)cc1
Outgoing: > 5 µM

Incoming: Also CC1=C(/C=C/C(C)=C/C=C/C(C)=C/C(=O)O)C(C)(C)CCC1 ?
Outgoing: > 10 µM

Attention now turns to another entry.
Incoming: For the molecule shown here, CN(NC(=O)CC(=O)NN(C)C(=S)c1ccccc1)C(=S)c1ccccc1 , give the reported IC50.
Outgoing: > 0.2 µM
